Answer each item with its documented glycan array binding signal (z-score).
Molecular target: Gal(b1-4)GlcNAc(b1-6)GalNAc
Experiment: glycan array binding signal (z-score within array); higher = stronger binding
Conditions: glycan notation: IUPAC condensed, linker removed
Many of the other results were omitted from the sample, so the strongest signals are more common in it than they were.
Give bare numbers.

{"columns": ["Binder", "Quantitative Result"],
 "data": [
  ["NcCVNHO (Neurospora crassa), Q7S6U4 (protein) MSFHVTAEDARIEVRDNRTILFARLRREDGEWNDASYELDQIIGNNDGHFQWGGQNFTETAEDIRFHPKEGAAEQPILRARLRDCNGEFHDRDVNLTEIVENVNGEFQAKF", -0.228],
  ["HHL-1 (Homo sapiens), P07306 (protein) TKEYQDLQHLDNEESDHHQLRKGPPPPQPLLQRLCSGPRLLLLSLGLSLLLLVVVCVIGSQNSQLQEELRGLRETFSNFTASTEAQVKGLSTQGGNVGRKMKSLESQLEKQQKDLSEDHSSLLLHVKQFVSDLRSLSCQMAALQGNGSERTCCPVNWVEHERSCYWFSRSGKAWADADNYCRLEDAHLVVVTSWEEQKFVQHHIGPVNTWMGLHDQNGPWKWVDGTDYETGFKNWRPEQPDDWYGHGLGGGEDCAHFTDDGRWNDDVCQRPYRWVCETELDKASQEPPLL", 4.51]
]}

# input for lookup
Problem: // returns reported glycan array binding signal (z-score) for input CTLY 1 (Homo sapiens), Q6ZS10 (protein) AITCPEGWLPFEGKCYYFSPSTKSWDEARMFCQENYSHLVIINSFAEHNFVAKAHGSPRVYWLGLNDRAQEGDWRWLDGSPVTLSFWEPEEPNNIHDEDCATMNKGGTWNDLSCYKTTYWICERKGLNDIFEAQKIEWHE
Result: -0.23
